target: human recombinant Yes [a.a. 2–543 (end)] (Homo sapiens, UniProt P07947); construct: human recombinant Yes [a.a; 2–543 (end)]; purchased BPS Bioscience 40488; experiment: ADP-Glo kinase assay, IC50 determination (dose-response curves) for Yes; assay type: biochemical; conditions: dose-response test, no DRR
Sequence (P07947 2-543): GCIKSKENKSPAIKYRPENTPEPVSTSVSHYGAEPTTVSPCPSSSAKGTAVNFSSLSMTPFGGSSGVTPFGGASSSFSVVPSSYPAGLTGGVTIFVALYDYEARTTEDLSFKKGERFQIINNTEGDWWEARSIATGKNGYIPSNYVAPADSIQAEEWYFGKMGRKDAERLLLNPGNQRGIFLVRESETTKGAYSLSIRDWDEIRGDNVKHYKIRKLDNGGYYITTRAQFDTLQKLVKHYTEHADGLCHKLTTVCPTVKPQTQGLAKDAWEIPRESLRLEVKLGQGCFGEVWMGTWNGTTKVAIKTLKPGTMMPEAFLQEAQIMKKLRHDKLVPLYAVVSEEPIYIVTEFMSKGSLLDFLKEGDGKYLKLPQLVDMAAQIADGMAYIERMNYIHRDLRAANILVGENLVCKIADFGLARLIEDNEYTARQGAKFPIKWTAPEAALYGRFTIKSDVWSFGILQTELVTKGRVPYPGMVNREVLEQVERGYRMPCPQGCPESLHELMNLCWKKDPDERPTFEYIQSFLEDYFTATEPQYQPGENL
Quantity name: "inhibition activity" in the whole range of concentrations

>>> df
                                   compound  measured_value
0  COc1ccc(Br)cc1/C=N/Nc1ncnc2nc[nH]c12 [Compound Z57745307]      around 50%
1  CCCC(C)c1cc(NC(=O)c2ccc(N3CCNC3=O)cc2)n[nH]1 (stereo not shown) [Compound Z1283491630]      around 50%
2  CC(=O)Nc1ccc(/C=N/Nc2ncnc3cc(-c4ccc(F)cc4)sc23)cc1 [Compound Z50080181]      around 50%
3  Fc1ccc(-c2cc3ncnc(N/N=C/c4ccncc4)c3s2)cc1 [Compound Z50080378]      around 50%

----------
molecular target: human recombinant Yes [a.a. 2–543 (end)] (Homo sapiens, UniProt P07947); construct: human recombinant Yes [a.a; 2–543 (end)]; purchased BPS Bioscience 40488; experiment: ADP-Glo kinase assay, inhibition rates of Yes phosphorylation activity (first and second screening); type: biochemical; conditions: first screening; mean of n = 4 wells; 10 μmol L−1 compound
Quantity name: First screening IR (inhibition rate)

                                    compound                         quantity_name  measured_value
 0       O=C(NCc1cnn(Cc2ccccc2)c1)Nc1ccncc1F  First screening IR (inhibition rate)              4%
 1  CC(c1ccccc1)n1c(NC(=O)c2ccccc2)c(S(=O)(=O)c2ccccc2)c2nc3ccccc3nc21 (centres unmarked)  First screening IR (inhibition rate)             -3%
 2  COC(=O)c1cn(C)c(-c2ccc(NC(=O)c3ccc(CN4CCCCC4)cc3)cc2)c1C(=O)OC  First screening IR (inhibition rate)             -1%
 3  O=S1(=O)CCC(S(=O)(=O)Cl)C1 (centres unmarked)  First screening IR (inhibition rate)             -7%
 4        CCn1ncc2c(C(=O)OC)cc(-c3cccs3)nc21  First screening IR (inhibition rate)             20%
 5  COc1ccc(-n2c(=O)c3ccccc3n3c(SCC(=O)NC(C)CCCC(C)C)nnc23)cc1 (centres unmarked)  First screening IR (inhibition rate)             -3%
 6        COCCCCCn1ncc2ccc([N+](=O)[O-])cc21  First screening IR (inhibition rate)              7%
 7        Cc1ccc(NC(=O)CSc2ncnc3ccccc23)cc1F  First screening IR (inhibition rate)              4%
 8  C[S+]([O-])CCNC(=O)c1ccc(-c2cc(Cl)cc(Cl)c2)s1 (centres unmarked)  First screening IR (inhibition rate)            -13%
 9  Cc1ccc(-c2cc(-c3ccccc3F)c3cc(Cl)ccc3n2)cc1.Cl  First screening IR (inhibition rate)             12%
10  CCOc1ccc(-n2c(SCC(=O)c3ccc[nH]3)nnc2-c2ccccc2Cl)cc1  First screening IR (inhibition rate)              7%
11  Cc1noc(C)c1S(=O)(=O)N1CCN(C(=O)CCc2c(C)[nH]c(=O)c(C#N)c2C)CC1  First screening IR (inhibition rate)             12%
12  Cc1ccc(O)c(-c2cc(-c3ccccc3)c3cc(Cl)ccc3n2)c1.Cl  First screening IR (inhibition rate)            -11%
13  Cn1ncc2c(N3CCOC(c4ccc(F)cc4)C3)ncnc21 (centres unmarked)  First screening IR (inhibition rate)             -2%
14    COc1cc(/C=N/Nc2ncnc3sc(C)c(C)c23)ccc1O  First screening IR (inhibition rate)             21%
15  CCN(C1CCS(=O)(=O)C1)S(=O)(=O)c1ccc(Br)cc1 (centres unmarked)  First screening IR (inhibition rate)              4%
16  CCOc1cc(N2CCOCC2)c(OCC)cc1NC(=O)CSc1nnc(-c2ccc3c(c2)OCO3)n1-c1ccccc1  First screening IR (inhibition rate)             -3%

----------
// reported First screening IR (inhibition rate) per item
Target: human recombinant Yes [a.a. 2–543 (end)] (Homo sapiens)
Construct: human recombinant Yes [a.a; 2–543 (end)]; purchased BPS Bioscience 40488
Experiment: ADP-Glo kinase assay, inhibition rates of Yes phosphorylation activity (first and second screening)
Assay type: biochemical
Details: first screening; mean of n = 4 wells; 10 μmol L−1 compound
Protocol: All inhibitory assays of the phosphorylation activity of Yes were performed in accordance with the Promega Technical Manual for the ADP-Glo™ Kinase Assay (Fitchburg, WI, USA. Catalog number: V9102). The human recombinant Yes [a.a. […] The screening was conducted in three steps consisting of the first screening, the second screening, and the IC50 determination, as can be illustrated in Fig. 1b. First, we determined the inhibition rates of the 1,991 compounds. […]
Quantity name: First screening IR (inhibition rate) (%)

>>> print(df.to_string())
                                   molecule                             target_system  unit_abbrev  measured_value
0  CCc1cccc(CC)c1NC(=O)COC(=O)CC1c2ccccc2CCN1S(=O)(=O)c1ccc(F)cc1 (centres unmarked)  human recombinant Yes [a.a. 2–543 (end)] (Homo sapiens)            %              27
1  CCC(NC(=O)c1cc2c(cc1Cl)N1CCCCCC1=NS2(=O)=O)c1ccc(C)cc1 (centres unmarked)  human recombinant Yes [a.a. 2–543 (end)] (Homo sapiens)            %               2
2  CC1CCCC(C)N(S(=O)(=O)CCCS(C)(=O)=O)C1 (centres unmarked)  human recombinant Yes [a.a. 2–543 (end)] (Homo sapiens)            %               8
3                    Cc1ccc(-c2nc(N)sc2C)s1  human recombinant Yes [a.a. 2–543 (end)] (Homo sapiens)            %              -1
4  Cc1cn2c3c(=O)n(CC(C)C)c(=O)n(C)c3nc2n1-c1ccc(S(N)(=O)=O)cc1  human recombinant Yes [a.a. 2–543 (end)] (Homo sapiens)            %               4
5   Cc1ccc(C(=O)OCc2nc(N)nc(Nc3ccccc3)n2)s1  human recombinant Yes [a.a. 2–543 (end)] (Homo sapiens)            %              -2
6  CN(C)c1ccc(CNC(=O)N2CCN(C3=NS(=O)(=O)c4ccccc43)CC2)cc1  human recombinant Yes [a.a. 2–543 (end)] (Homo sapiens)            %               1
7  O=c1c2ccc3c(=O)n4c5cccc6cccc(nc4c4ccc(c2c34)c2nc3ccccc3n12)c65  human recombinant Yes [a.a. 2–543 (end)] (Homo sapiens)            %              -6

----------
biological target: human recombinant Yes [a.a. 2–543 (end)] (Homo sapiens); construct: human recombinant Yes [a.a; 2–543 (end)]; purchased BPS Bioscience 40488; assay: ADP-Glo kinase assay, inhibition rates of Yes phosphorylation activity (first and second screening); assay type: biochemical; settings: first screening; mean of n = 4 wells; 10 μmol L−1 compound
Listed molecules paired with reported First screening IR (inhibition rate)
Quantity name: First screening IR (inhibition rate) (%)

>>> df
                                   molecule                             target_system  measured_value
0  Cc1ccc(S(=O)(=O)N(C)C2(C)CCS(=O)(=O)C2)cc1C (centres unmarked) [Compound Z150918412]  human recombinant Yes [a.a. 2–543 (end)] (Homo sapiens)               9
1  Cl.O=C(NCCC1CCCNC1)c1c(F)cccc1Br (centres unmarked) [Compound Z1457134316]  human recombinant Yes [a.a. 2–543 (end)] (Homo sapiens)              -2
2  COc1cc(/C=N/Nc2ccnc3cc(Cl)ccc23)ccc1OC(F)F [Compound Z49626092]  human recombinant Yes [a.a. 2–543 (end)] (Homo sapiens)             -10
3  COc1ccc(CN2CCN(Cc3c(-c4ccccc4)nc4ccccn34)CC2)cc1OC [Compound Z89207636]  human recombinant Yes [a.a. 2–543 (end)] (Homo sapiens)              45
4  CN(C)c1nc(N)nc(CSCc2nc3ccccc3s2)n1 [Compound Z232651876]  human recombinant Yes [a.a. 2–543 (end)] (Homo sapiens)             -13
5  COc1ccc(C(CNC(=O)c2ccc3c(c2)NC(=O)C(C)S3)N(C)C)cc1 (centres unmarked) [Compound Z26596638]  human recombinant Yes [a.a. 2–543 (end)] (Homo sapiens)              27
6  CCCc1cc(=O)oc2cc(OCC(=O)N(C)CC3COc4ccccc4O3)ccc12 (centres unmarked) [Compound Z97092537]  human recombinant Yes [a.a. 2–543 (end)] (Homo sapiens)              30
7  COc1cccc2cc(C(=O)N3CCN(S(=O)(=O)c4ccccc4C(F)(F)F)CC3)c(=O)oc12 [Compound Z29531247]  human recombinant Yes [a.a. 2–543 (end)] (Homo sapiens)              18
